Tested on: NB4
Assay Text: Leukemia cell growth inhibition, MTT, 72 h
Assay type: cell-based, human
Condition Description: Homo sapiens, NB-4; 72 h, MTT
We label by threshold. Values of IC50 strictly beneath 0.1 µg/mL are Condition met. Values of 0.1 µg/mL and up are Condition not met.

Compound | Tested Target | Cat
C=C1C(=O)[C@]23[C@H](OC(=O)c4ccncc4)[C@H]1CC[C@H]2[C@@]12CO[C@@]3(O)[C@@H](O)[C@@H]1C(C)(C)CCC2=O [BS-OR-012] | NB4 | Condition not met
C=C1C(=O)[C@]23[C@H](OC(=O)C4CCC(NC(=O)c5ccccn5)CC4)[C@H]1CC[C@H]2[C@@]12CO[C@@]3(O)[C@@H](O)[C@@H]1C(C)(C)CCC2=O (stereo partly drawn) [BS-OR-083] | NB4 | Condition not met
C=C1C(=O)[C@]23[C@H](OC(=O)c4ccc(C)cc4)[C@H]1CC[C@H]2[C@@]12CO[C@@]3(O)[C@@H](O)[C@@H]1C(C)(C)CCC2=O [BS-OR-004] | NB4 | Condition not met
C=C1C(=O)[C@]23[C@H](OC(=O)C4CCN(S(=O)(=O)c5ccccc5)CC4)[C@H]1CC[C@H]2[C@@]12CO[C@@]3(O)[C@@H](O)[C@@H]1C(C)(C)CCC2=O [BS-OR-032] | NB4 | Condition not met
C=C1C(=O)[C@]23[C@H](OC(=O)c4ccc(C)cc4)[C@H]1CC[C@H]2[C@@]12CO[C@@]3(O)[C@@H](O)[C@@H]1C(C)(C)CCC2OC(C)=O (stereo partly drawn) [BS-OR-090] | NB4 | Condition met
C=C1C(=O)[C@]23[C@H](OC(=O)c4ccc(Cl)cc4)[C@H]1CC[C@H]2[C@@]12CO[C@@]3(O)[C@@H](O)[C@@H]1C(C)(C)CC[C@@H]2OC(C)=O [BS-OR-093] | NB4 | Condition met
C=C1C(=O)[C@]23[C@H](OC(=O)c4ccc(OC)c(OC)c4)[C@H]1CC[C@H]2[C@@]12CO[C@@]3(O)[C@@H](O)[C@@H]1C(C)(C)CCC2=O [BS-OR-015] | NB4 | Condition not met
C=C1C(=O)[C@]23[C@H](OC(=O)C4CC4)[C@H]1CC[C@H]2[C@@]12CO[C@@]3(O)[C@@H](O)[C@@H]1C(C)(C)CCC2=O [BS-OR-017] | NB4 | Condition not met
C=C1C(=O)[C@]23[C@H](OC(=O)C4CCN(S(=O)(=O)CC)CC4)[C@H]1CC[C@H]2[C@@]12CO[C@@]3(O)[C@@H](O)[C@@H]1C(C)(C)CCC2=O [BS-OR-038] | NB4 | Condition not met
C=C1C(=O)[C@]23[C@H](OC(=O)c4ccc(OC)cc4)[C@H]1CC[C@H]2[C@@]12CO[C@@]3(O)[C@@H](O)[C@@H]1C(C)(C)CCC2OC(C)=O (stereo partly drawn) [BS-OR-091] | NB4 | Condition not met
C=C1C(=O)[C@]23[C@H](OC(=O)c4cccs4)[C@H]1CC[C@H]2[C@@]12CO[C@@]3(O)[C@@H](O)[C@@H]1C(C)(C)CCC2=O [BS-OR-007] | NB4 | Condition met
